# Tested on: PANC-1
# Procedure Details: SRB colorimetric assay of cell growth and viability, PANC-1
# Type: cell-based, human
# Conditions: 48 hours exposure, SRB; read-out: LC50 PANC-1
Measured Parameter: CC50 (µM)
One number for each entry, in µM.

Reference set, count: 2
Compound	Target Or System	CC50 / µM
C/C=C1\NC(=O)[C@H](Cc2ccc(F)cc2)NC(=O)[C@@H](C(C)C)NC(=O)[C@@H]([C@@H](C)CC)NC(=O)[C@H](NC(=O)[C@H](NC(=O)[C@H](CCCN)NC(=O)[C@H]2CCCN2C(=O)[C@H](NC(=O)[C@@H](NC(=O)[C@@H](NC(=O)[C@H](NC(=O)CC[C@@H](C)CC)C(C)C)[C@@H](C)O)C(C)C)C(C)C)[C@@H](C)CC)[C@@H](C)OC(=O)[C@H](C(C)C)NC1=O [Compound 74, [Phe(4-F)^3, (4S)-MeHex^14]-KF]	PANC-1	3.6
C/C=C1\NC(=O)[C@H](Cc2ccccc2)NC(=O)[C@@H](C(C)C)NC(=O)[C@@H]([C@@H](C)CC)NC(=O)[C@H](NC(=O)[C@H](NC(=O)[C@H](CCCN)NC(=O)[C@H]2CCCN2C(=O)[C@H](NC(=O)[C@@H](NC(=O)[C@@H](NC(=O)[C@H](NC(=O)CC[C@@H](C)[C@H]2CC[C@H]3[C@@H]4CC[C@@H]5C[C@H](OC(=O)C(F)(F)F)CC[C@]5(C)[C@H]4CC[C@]23C)C(C)C)[C@@H](C)OC(=O)C(F)(F)F)C(C)C)C(C)C)[C@@H](C)CC)[C@@H](C)OC(=O)[C@H](C(C)C)NC1=O [Compound 97]	PANC-1	5.22

Below: the item to evaluate.
Any idea what its CC50 is? The compound is C/C=C1\NC(=O)[C@H](Cc2ccccc2)NC(=O)[C@@H](C(C)C)NC(=O)[C@@H]([C@@H](C)CC)NC(=O)[C@H](NC(=O)[C@H](NC(=O)[C@H](CCCNC(=O)C(F)(F)F)NC(=O)[C@H]2CCCN2C(=O)[C@H](NC(=O)[C@@H](NC(=O)[C@@H](NC(=O)[C@H](NC(=O)CC[C@@H](C)CC)C(C)C)[C@@H](C)OC(=O)C(F)(F)F)C(C)C)C(C)C)[C@@H](C)CC)[C@@H](C)OC(=O)[C@H](C(C)C)NC1=O [Compound 95]
5.99
